Values from PubChem BioAssay (Tox21)

assay-protocol: qHTS RealTime-Glo MT Cell Viability Assay in HEK293 cells - 0 hour (AID 1224880); also: nearly all actives have a fitted effect of over 45% in size
condition-context: RealTime-Glo luminescence; series mostly up to 76.8 µM
Inconclusive results are not listed. Active and inactive are the calls of the source. Calls follow the shape of the dose curve; as a rule, active = well fitted cell-killing curve with a large enough effect in the repeat runs; inconclusive = weak or mixed curves, or effect the other way; inactive = flat fitted curve, though single readings scatter.
One label from this list, please: true = active, false = inactive

- CC(C)CCCCCCCCCCCCCCC(=O)O: false

// query State the result this test recorded for COC(=O)C1=C(C)NC(C)=C(C(=O)OCC(C)C)C1c1ccccc1[N+](=O)[O-] (stereo not drawn) .
// result true

// query State the result this test recorded for Cc1cccc(S(=O)(=O)O)c1C .
// result false

====

assay-protocol: A CellTox Green Cytotoxicity Assay to monitor cytotoxicity in HepG2 cells - 24 hour (AID 1224878); also: nearly all actives have a fitted effect of over 45% in size
condition-context: CellTox Green fluorescence; series mostly up to 76.8 µM
Inconclusive results are not listed. Activity calls are given as the source filed them. Calls follow the shape of the dose curve; as a rule, active = well fitted activation curve with a large enough effect in the repeat runs; inconclusive = weak or mixed curves; inactive = flat fitted curve, though single readings scatter.
One label from this list, please: T = active, F = inactive

# example entries with known answers
• CN(C)CCCOC1(Cc2ccccc2)CCCCCC1 = F
• Nc1ccc(N)c2ccccc12 = T
• Nc1ccccc1O = F
• CCOC(=O)/C=C(C)/C=C/C=C(C)/C=C/c1c(C)cc(OC)c(C)c1C = F
• CC(C)=CCOc1ccc(/C=C/C(=O)c2ccc(OCC=C(C)C)cc2OCC(=O)O)cc1 = F

// query State the result this test recorded for Nc1c2ccccc2nc2ccccc12 .
// result T

// query State the result this test recorded for COc1c(C)c2c(c(O)c1C/C=C(\C)CCC(=O)O)C(=O)OC2 .
// result F

// query State the result this test recorded for CCCCC(CC)CN=C(N)NC(N)=NCCCCCCN=C(N)NC(N)=NCC(CC)CCCC (centres undefined) .
// result T
